- System: Enterococcus spp.
- Test Details: minimum inhibitory concentration (MIC)
- Experimental Setup: isolate (source animal id): 239
Listed below: minimum inhibitory concentration values for each entry.
Property Name: minimum inhibitory concentration (µg/mL)

[[record]]
molecule = "C=C[C@]1(C)C[C@@H](OC(=O)CSCCN(CC)CC)[C@]2(C)[C@H](C)CC[C@]3(CCC(=O)[C@H]32)[C@@H](C)[C@@H]1O"
readout_units = "µg/mL"
comparison_sign = "="
reported_result = 2

[[record]]
molecule = "CN(C)[C@@H]1C(O)=C(C(N)=O)C(=O)[C@@]2(O)C(O)=C3C(=O)c4c(O)cccc4[C@@](C)(O)[C@H]3C[C@@H]12"
readout_units = "µg/mL"
comparison_sign = "≤"
reported_result = 0.5

[[record]]
molecule = "COc1cc(NS(=O)(=O)c2ccc(N)cc2)nc(OC)n1"
readout_units = "µg/mL"
comparison_sign = ">"
reported_result = 256

[[record]]
molecule = "CCCN1C[C@H](C)[C@@H](O)[C@](C)(O)[C@@H](CC)OC(=O)[C@H](C)[C@@H](O[C@H]2C[C@@](C)(OC)[C@@H](O)[C@H](C)O2)[C@H](C)[C@@H](O[C@@H]2O[C@H](C)C[C@H](N(C)C)[C@H]2O)[C@](C)(O)C[C@H]1C"
readout_units = "µg/mL"
comparison_sign = "="
reported_result = 4

[[record]]
molecule = "CNC(C)C1CCC(N)C(OC2C(N)CC(N)C(OC3OCC(C)(O)C(NC)C3O)C2O)O1 (stereo unspecified)"
readout_units = "µg/mL"
comparison_sign = "="
reported_result = 4

[[record]]
molecule = "CC[C@H]1OC(=O)C[C@@H](O)[C@H](C)[C@@H](O[C@@H]2O[C@H](C)[C@@H](O)[C@H](N(C)C)[C@H]2O)[C@@H](CCN2C[C@H](C)C[C@H](C)C2)C[C@@H](C)C(=O)/C=C/C(C)=C/[C@@H]1CO[C@@H]1O[C@H](C)[C@@H](O)[C@@H](OC)[C@H]1OC"
readout_units = "µg/mL"
comparison_sign = "="
reported_result = 4


Sourced from the supplement of paper PMC8612539
